Reported Kd values are given for each entry in this list.
target: T1, Cynomolgus monkey BCMA (cynomolgus monkey); test: SPR, IgG immobilised, cyno BCMA analyte
T1 construct: Soluble analyte in SPR; also called cyBCMA; Cyno BCMA

binder	measureUnit	Kd
C01_Rd4_0.6nM_C03 (antibody, V domains shown, IgG) VH: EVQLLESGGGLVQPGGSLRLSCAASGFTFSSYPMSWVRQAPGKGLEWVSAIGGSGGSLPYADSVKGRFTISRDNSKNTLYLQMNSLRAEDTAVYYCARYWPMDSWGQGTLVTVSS VL: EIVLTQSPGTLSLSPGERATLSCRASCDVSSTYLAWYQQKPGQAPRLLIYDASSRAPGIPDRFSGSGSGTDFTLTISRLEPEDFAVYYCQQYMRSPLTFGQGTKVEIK	nM	2.53
COMBO_Rd4_0.6nM_C20 (antibody, V domains shown, IgG) VH: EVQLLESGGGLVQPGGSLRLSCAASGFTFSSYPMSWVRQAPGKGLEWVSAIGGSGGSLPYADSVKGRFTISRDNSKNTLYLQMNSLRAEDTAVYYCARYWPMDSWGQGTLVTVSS VL: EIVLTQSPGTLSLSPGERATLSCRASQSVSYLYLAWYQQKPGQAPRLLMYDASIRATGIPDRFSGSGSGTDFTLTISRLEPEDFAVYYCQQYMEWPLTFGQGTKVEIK	nM	0.092
C01_Rd4_6nM_C10 (antibody, V domains shown, IgG) VH: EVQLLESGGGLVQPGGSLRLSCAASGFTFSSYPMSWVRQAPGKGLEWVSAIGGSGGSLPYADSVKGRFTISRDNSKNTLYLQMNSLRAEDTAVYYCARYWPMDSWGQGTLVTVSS VL: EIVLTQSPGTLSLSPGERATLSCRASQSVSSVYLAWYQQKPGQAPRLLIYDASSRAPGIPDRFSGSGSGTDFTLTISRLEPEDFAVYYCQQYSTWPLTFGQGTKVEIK	nM	0.493
A02_Rd4_6nM_C19 (antibody, V domains shown, IgG) VH: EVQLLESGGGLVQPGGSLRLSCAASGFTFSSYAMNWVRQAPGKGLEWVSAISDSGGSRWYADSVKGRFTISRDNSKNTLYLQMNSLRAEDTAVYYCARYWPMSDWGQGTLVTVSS VL: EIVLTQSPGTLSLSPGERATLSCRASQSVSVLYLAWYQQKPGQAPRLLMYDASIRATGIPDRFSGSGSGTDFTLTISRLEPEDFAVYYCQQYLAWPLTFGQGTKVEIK	nM	0.26
COMBO_Rd4_6nM_C25 (antibody, V domains shown, IgG) VH: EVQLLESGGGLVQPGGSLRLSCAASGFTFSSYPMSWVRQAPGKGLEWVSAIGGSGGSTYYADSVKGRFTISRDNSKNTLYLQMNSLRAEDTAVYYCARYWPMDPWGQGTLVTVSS VL: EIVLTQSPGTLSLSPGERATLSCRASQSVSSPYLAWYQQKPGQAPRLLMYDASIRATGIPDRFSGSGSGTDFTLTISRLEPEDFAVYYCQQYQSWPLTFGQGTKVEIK	nM	0.079
